# Test system: VDR:RXRa (NR concentration 270 nM, RXRa partner concentration 90 nM)
# assay procedure: PBM binding z-score (relative to random genomic background probes); higher = stronger binding; sequences stand for … in GC…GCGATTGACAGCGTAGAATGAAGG
Classes based on PBM binding z-score: label 0 = under 3, label 1 = from 3 up to 5, label 2 = 5 and over

Example results:
1) TCGAGTAGGTTACGGGGCCATTCAGGGATGAAGA    label 0
2) CAAACTAGGTCAAAGGACAGTGAAAGGCGACGTA    label 0
3) ACTTACGGGTCAACGACGTTATAGCACGCGTATA    label 1
4) CGTTCAAGGTCATAGGAGGTCAGTGAAGACAGAT    label 2
5) CGTCAAAGTTAAAGGTAACGTAACAGAAAGCAGC    label 0
6) CCTACAGGGCCAAGGTCATTGATCAGTCAAAGCA    label 1
7) TCGAGTAGGTTACGGGGGCACTCAGGGATGAAGA    label 1
8) GCTGCTAGGTCGACTGATGGTCAGCTAAAGCTCG    label 0
9) TAGCCTAGGTCATTCAGGGGTCAGTATAGAAAGC    label 2
10) CTATGTAGGTTGAGGGGGTCATTCAGTTTGAAAG    label 2

Classify this sequence: "ATATGTAGTTTAGGGTCATTCAGAAAGTAGGGAA"
label 1

Classify this sequence: "TCTTGTTGATCAAAGGTTAAGAAAGCCGAAGCCT"
label 0

Classify this sequence: "ACTAGCAGGTCAAGGGTCACTCAAGATTAGTCCG"
label 2

Classify this sequence: "TCTCGGAGGACACGAAACGTCAGAGCTCGACATC"
label 0

Classify this sequence: "CTAACTAGGTCACCGGAAGGTCAAAGTCCGCATG"
label 2

Classify this sequence: "CTATGTAGGTTAAGGGGGTCATTCAATTTGAAAG"
label 2

Classify this sequence: "AGAATGAGGTTACCAGAGATCAGGGAAACGCTTG"
label 0

Classify this sequence: "CTATGTAGGTTAAGGGGGTCGTTCAGTTTGAAAG"
label 2

Classify this sequence: "TTACCAAGGTGAAAGGTCGGTGATGCACGCCTTG"
label 0

Classify this sequence: "CGTCCAAGGGCAGCAGGTCAGTGAAAGCGACGTG"
label 0

Classify this sequence: "CGTCCAAGGTCAATTCTAGGTCAGTGAAAGCATT"
label 1

Classify this sequence: "CCTGCTAGGTCAATGGTCAGCTAAAGCAGCTCGC"
label 0

Classify this sequence: "TCTAGTTGGTCAAAGGTCAAACACTCGAAATGCG"
label 2
